Target: human oxytocin (hOT) receptor (Homo sapiens, UniProt P30559)
Construct: expressed in transfected cells
Sequence (P30559 whole entry): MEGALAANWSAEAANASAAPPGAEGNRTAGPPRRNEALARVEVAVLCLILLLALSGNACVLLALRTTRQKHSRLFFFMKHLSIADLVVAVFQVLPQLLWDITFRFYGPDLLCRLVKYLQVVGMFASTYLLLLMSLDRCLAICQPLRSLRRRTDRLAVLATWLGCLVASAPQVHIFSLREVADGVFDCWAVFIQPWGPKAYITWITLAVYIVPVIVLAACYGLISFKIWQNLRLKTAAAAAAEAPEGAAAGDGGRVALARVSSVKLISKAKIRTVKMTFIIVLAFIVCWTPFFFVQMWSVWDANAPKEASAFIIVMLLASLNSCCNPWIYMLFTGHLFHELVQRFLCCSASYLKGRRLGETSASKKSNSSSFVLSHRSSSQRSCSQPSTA
Test: luciferase-based transcriptional reporter assay, selectivity hOT versus hV1a
Type: cell-based
Conditions: EC50 ratio
Starred links: 1 amine or outer side, 2 acyl side, 3 side chain; linkers in the order of their positions; H or OH if unused. Positions of bridges follow the written chain, without caps; N, C: chain ends. Non-standard residues stand in square brackets, D forms with d. Residues, ends and D or L forms follow the SMILES beside them. Ala(2-furyl) = N[C@@H](Cc1ccco1)C(=O)O; X2 = CONC(=O)CC[C@H](N[*:1])C(=O)[*:2]; Orn = NCCC[C@H](N)C(=O)O; Dab = NCC[C@H](N)C(=O)O

- molecule: "CC[C@H](C)[C@@H]1NC(=O)[C@H](Cc2ccco2)NC(=O)[C@@H](N)CSSC[C@@H](C(=O)N2CCC[C@H]2C(=O)N[C@@H](CCN)C(=O)NCC(N)=O)NC(=O)[C@H](CC(N)=O)NC(=O)[C@H](CCC(N)=O)NC1=O [Compound 26] (H-C[Ala(2-furyl)]IQNCP[Dab]G-NH2; disulfide 1-6; N-terminus and C-terminus assumed)"
  selectivity hOT/hV1a: 28
- molecule: "CC[C@H](C)[C@@H]1NC(=O)[C@H](Cc2ccccc2)NC(=O)[C@@H](N)CSSC[C@@H](C(=O)N2CCC[C@H]2C(=O)N[C@@H](CCN)C(=O)NCC(N)=O)NC(=O)[C@H](CC(N)=O)NC(=O)[C@H](CCC(N)=O)NC1=O [Compound 8] (H-CFIQNCP[Dab]G-NH2; disulfide 1-6; N-terminus and C-terminus assumed)"
  selectivity hOT/hV1a: 11
- molecule: "CC[C@H](C)[C@@H]1NC(=O)[C@H](Cc2ccccc2)NC(=O)[C@@H](N)CSSC[C@@H](C(=O)N2CCC[C@H]2C(=O)N[C@@H](CCCN)C(=O)NCC(N)=O)NC(=O)[C@H](CC(N)=O)NC(=O)[C@H](CCC(=O)NOC)NC1=O [Compound 10] (H-CFI[X2]NCP[Orn]G-NH2; disulfide 1-6; N-terminus and C-terminus assumed)"
  selectivity hOT/hV1a: 11

###

Target: hV1a receptor (Homo sapiens)
Construct: expressed in transfected cells; host or cells: HEK-293
Sequence (P37288 whole entry): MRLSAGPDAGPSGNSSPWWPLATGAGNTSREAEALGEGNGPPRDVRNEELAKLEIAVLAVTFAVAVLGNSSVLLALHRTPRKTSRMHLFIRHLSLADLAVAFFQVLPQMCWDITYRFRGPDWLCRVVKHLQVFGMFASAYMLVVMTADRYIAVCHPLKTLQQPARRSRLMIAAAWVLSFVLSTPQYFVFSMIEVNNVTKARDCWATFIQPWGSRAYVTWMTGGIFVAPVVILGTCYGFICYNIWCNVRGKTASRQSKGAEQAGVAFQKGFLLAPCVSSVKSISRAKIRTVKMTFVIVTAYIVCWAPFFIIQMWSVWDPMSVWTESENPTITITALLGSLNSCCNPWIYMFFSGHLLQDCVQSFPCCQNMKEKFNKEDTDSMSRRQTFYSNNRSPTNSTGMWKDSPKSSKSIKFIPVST
Assay: hV1a receptor transcriptional reporter (luciferase) agonist assay
Assay type: cell-based
Settings: HEK-293 cells transiently transfected with hV1a receptor, 5 hours exposure, geometric mean; read-out: EC50 hV1a receptor
pEC50: −log10 of the molar value. Positions of bridges follow the written chain, without caps; N, C: chain ends. Non-standard residues stand in square brackets, D forms with d. Residues, ends and D or L forms follow the SMILES beside them. *: point of attachment. Ala(2-furyl) = N[C@@H](Cc1ccco1)C(=O)O; Orn(iPr) = CC(C)NCCC[C@H](N)C(=O)O; 3Pal = N[C@@H](Cc1cccnc1)C(=O)O; Orn(Pr) = CCCNCCC[C@H](N)C(=O)O; 2Thi = N[C@@H](Cc1cccs1)C(=O)O; 3Thi = N[C@@H](Cc1ccsc1)C(=O)O; Orn = NCCC[C@H](N)C(=O)O; Dab = NCC[C@H](N)C(=O)O; NHCH2CH2OH = OCCN*; X4 = OCCOCCN*; NHOH = ON*
measuredAttribute: pEC50

- compound: "CC[C@H](C)[C@@H]1NC(=O)[C@H](Cc2cccnc2)NC(=O)[C@@H](N)CSSC[C@@H](C(=O)N2CCC[C@H]2C(=O)N[C@@H](CCN)C(=O)NCC(N)=O)NC(=O)[C@H](CC(N)=O)NC(=O)[C@H](CCC(N)=O)NC1=O [Compound 18] (H-C[3Pal]IQNCP[Dab]G-NH2; disulfide 1-6; N-terminus and C-terminus assumed)"
  measuredAttribute: "pEC50"
  measuredNumber: 7.53
- compound: "CC[C@H](C)[C@@H]1NC(=O)[C@H](Cc2cccs2)NC(=O)[C@@H](N)CSSC[C@@H](C(=O)N2CCC[C@H]2C(=O)N[C@@H](CCCNC(C)C)C(=O)NCC(N)=O)NC(=O)[C@H](CC(N)=O)NC(=O)[C@H](CC(N)=O)NC1=O [Compound 43] (H-C[2Thi]INNCP[Orn(iPr)]G-NH2; disulfide 1-6; N-terminus and C-terminus assumed)"
  measuredAttribute: "pEC50"
  measuredNumber: 7.86
- compound: "CC[C@H](C)[C@@H]1NC(=O)[C@H](Cc2ccccc2)NC(=O)[C@@H](N)CSSC[C@@H](C(=O)N2CCC[C@H]2C(=O)N[C@@H](CCCN)C(=O)NCC(N)=O)NC(=O)[C@H](CC(N)=O)NC(=O)[C@H](CC(=O)NCCOCCO)NC1=O [Compound 29] (H-CFID(X4)NCP[Orn]G-NH2; disulfide 1-6; N-terminus and C-terminus assumed)"
  measuredAttribute: "pEC50"
  measuredNumber: 8.32
- compound: "CC[C@H](C)[C@@H]1NC(=O)[C@H](Cc2ccco2)NC(=O)[C@@H](N)CSSC[C@@H](C(=O)N2CCC[C@H]2C(=O)N[C@@H](CCN)C(=O)NCC(N)=O)NC(=O)[C@H](CC(N)=O)NC(=O)[C@H](CC(N)=O)NC1=O [Compound 44] (H-C[Ala(2-furyl)]INNCP[Dab]G-NH2; disulfide 1-6; N-terminus and C-terminus assumed)"
  measuredAttribute: "pEC50"
  measuredNumber: 7.84
- compound: "CCCNCCC[C@H](NC(=O)[C@@H]1CCCN1C(=O)[C@@H]1CSSC[C@H](N)C(=O)N[C@@H](Cc2ccccc2)C(=O)N[C@@H]([C@@H](C)CC)C(=O)N[C@@H](CC(N)=O)C(=O)N[C@@H](CC(N)=O)C(=O)N1)C(=O)NCC(N)=O [Compound 50] (H-CFINNCP[Orn(Pr)]G-NH2; disulfide 1-6; N-terminus and C-terminus assumed)"
  measuredAttribute: "pEC50"
  measuredNumber: 8.82
- compound: "CC[C@H](C)[C@@H]1NC(=O)[C@H](Cc2ccccc2)NC(=O)[C@@H](N)CSSC[C@@H](C(=O)N2CCC[C@H]2C(=O)N[C@@H](CCCN)C(=O)NCC(N)=O)NC(=O)[C@H](CC(N)=O)NC(=O)[C@H](CCC(=O)NC)NC1=O [Compound 19] (H-CFIE(NHMe)NCP[Orn]G-NH2; disulfide 1-6)"
  measuredAttribute: "pEC50"
  measuredNumber: 8.22
- compound: "CC[C@H](C)[C@@H]1NC(=O)[C@H](Cc2ccccc2)NC(=O)[C@@H](N)CSSC[C@@H](C(=O)N2CCC[C@H]2C(=O)N[C@@H](CCCN)C(=O)NCC(N)=O)NC(=O)[C@H](CC(N)=O)NC(=O)[C@H](CC(=O)NCCO)NC1=O [Compound 23] (H-CFID(NHCH2CH2OH)NCP[Orn]G-NH2; disulfide 1-6)"
  measuredAttribute: "pEC50"
  measuredNumber: 8.10
- compound: "CC[C@H](C)[C@@H]1NC(=O)[C@H](Cc2ccccc2)NC(=O)[C@@H](N)CSSC[C@@H](C(=O)N2CCC[C@H]2C(=O)N[C@@H](CCCN)C(=O)NCC(N)=O)NC(=O)[C@H](CC(N)=O)NC(=O)[C@H](CC(=O)NC)NC1=O [Compound 49] (H-CFID(NHMe)NCP[Orn]G-NH2; disulfide 1-6; N-terminus and C-terminus assumed)"
  measuredAttribute: "pEC50"
  measuredNumber: 8.45
- compound: "CC[C@H](C)[C@@H]1NC(=O)[C@H](Cc2ccsc2)NC(=O)[C@@H](N)CSSC[C@@H](C(=O)N2CCC[C@H]2C(=O)N[C@@H](CCCN)C(=O)NCC(N)=O)NC(=O)[C@H](CC(N)=O)NC(=O)[C@H](CC(N)=O)NC1=O [Compound 35] (H-C[3Thi]INNCP[Orn]G-NH2; disulfide 1-6)"
  measuredAttribute: "pEC50"
  measuredNumber: 8.14
- compound: "CCNC(=O)C[C@@H]1NC(=O)[C@H]([C@@H](C)CC)NC(=O)[C@H](Cc2ccccc2)NC(=O)[C@@H](N)CSSC[C@@H](C(=O)N2CCC[C@H]2C(=O)N[C@@H](CCCN)C(=O)NCC(N)=O)NC(=O)[C@H](CC(N)=O)NC1=O [Compound 48] (H-CFID(NHEt)NCP[Orn]G-NH2; disulfide 1-6; N-terminus and C-terminus assumed)"
  measuredAttribute: "pEC50"
  measuredNumber: 8.24
- compound: "CC[C@H](C)[C@@H]1NC(=O)[C@H](Cc2ccccc2)NC(=O)[C@@H](N)CSSC[C@@H](C(=O)N2CCC[C@H]2C(=O)N[C@@H](CCN)C(=O)NCC(N)=O)NC(=O)[C@H](CC(N)=O)NC(=O)[C@H](CCC(N)=O)NC1=O [Compound 8] (H-CFIQNCP[Dab]G-NH2; disulfide 1-6; N-terminus and C-terminus assumed)"
  measuredAttribute: "pEC50"
  measuredNumber: 9.30
- compound: "CC[C@H](C)[C@@H]1NC(=O)[C@H](Cc2ccccc2)NC(=O)[C@@H](N)CSSC[C@@H](C(=O)N2CCC[C@H]2C(=O)N[C@@H](CCCN)C(=O)NCC(N)=O)NC(=O)[C@H](CC(N)=O)NC(=O)[C@H](CC(=O)NO)NC1=O [Compound 24] (H-CFID(NHOH)NCP[Orn]G-NH2; disulfide 1-6; N-terminus and C-terminus assumed)"
  measuredAttribute: "pEC50"
  measuredNumber: 8.39
